Ref: patent US8383637B2

target: β-secretase(BACE) (Homo sapiens, UniProt P56817)
Construct: purchased Panvera
Sequence (P56817 46-501): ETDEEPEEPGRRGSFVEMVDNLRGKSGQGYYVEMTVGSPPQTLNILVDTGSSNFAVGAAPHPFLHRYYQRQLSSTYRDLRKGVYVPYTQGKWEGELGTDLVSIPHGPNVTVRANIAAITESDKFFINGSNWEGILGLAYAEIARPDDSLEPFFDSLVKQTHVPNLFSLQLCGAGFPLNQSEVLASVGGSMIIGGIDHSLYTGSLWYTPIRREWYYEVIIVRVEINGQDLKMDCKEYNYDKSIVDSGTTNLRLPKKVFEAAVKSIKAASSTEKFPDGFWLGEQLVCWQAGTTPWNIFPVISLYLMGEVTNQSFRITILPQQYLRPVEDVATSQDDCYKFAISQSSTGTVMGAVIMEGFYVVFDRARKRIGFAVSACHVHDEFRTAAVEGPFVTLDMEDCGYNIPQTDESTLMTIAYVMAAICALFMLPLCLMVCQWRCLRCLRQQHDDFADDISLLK
assay.remarks: BACE Assay-2 (FS1 substrate, IC50 and Ki)
Format: biochemical
assay.setup: procedure of Example 159, FS1 substrate; read-out: Ki μM (159)
Experimental: The FS1-substrate stock solution was prepared in DMSO as a 10 mg/mL solution. The FS1-substrate working solution was prepared by diluting the 10 mg/mL stock solution with substrate assay buffer to a final concentration of 300 μg/mL. […] For test compounds, measured at multiple concentrations, the measured T0 and T60 values were used to calculate an IC50 value using Graphpad Software (or PIR). […]
Returns: string. Value is label 1 if measured Ki is below 0.09 µM, and label 0 if it is greater than or equal to it.

compound: CN(C(=O)c1cccc(CN2Cc3cc(-c4ccccc4F)ccc3N=C2N)c1)C1CCCCC1 [Compound 334]
category: label 1

Req: Confirm or reject: Ki of CCCC(CCC)C(=O)NCC(C1CCCCC1)N1Cc2cc(Oc3ccccc3)ccc2N=C1N (centres unmarked) [Compound 302] lies strictly below 0.09 µM
Resp: label 0

Req: Confirm or reject: Ki of CN(C(=O)c1cccc(CN2Cc3cc(-c4ccccc4CC#N)ccc3N=C2N)c1)C1CCCCC1 [Compound 325] lies strictly below 0.09 µM
Resp: label 0

Req: Confirm or reject: Ki of CN(C(=O)c1cccc(CN2Cc3cc(Sc4ccccc4)ccc3N=C2N)c1)C1CCCCC1 [Compound 476] lies strictly below 0.09 µM
Resp: label 0

Req: Confirm or reject: Ki of NC1=Nc2ccc(-c3ccccc3Cl)cc2CN1CCNC(=O)C1CCCCC1 [Compound 536] lies strictly below 0.09 µM
Resp: label 1

Req: Confirm or reject: Ki of Cc1cc(CN(C)C(=O)CC[C@@H](C2CCCCC2)N2Cc3cc(-c4ccccc4F)ccc3N=C2N)on1 [Compound 723] lies strictly below 0.09 µM
Resp: label 0

Req: Confirm or reject: Ki of NC1=Nc2ccc(Oc3ccccc3)cc2CN1[C@@H](CCC(=O)N(CCOCc1ccccc1)[C@H]1CC[C@@H](C(=O)O)CC1)C1CCOCC1 [Compound 751] lies strictly below 0.09 µM
Resp: label 1

Req: Confirm or reject: Ki of CC(C)CCC(=O)NC[C@@H](C(C)C)N1Cc2cc(Oc3ccccc3)ccc2N=C1N [Compound 564] lies strictly below 0.09 µM
Resp: label 1

====

target: β-secretase(BACE) (Homo sapiens)
Construct: purchased Panvera
assay.remarks: BACE Assay-1 (MCA-substrate, IC50)
Type: biochemical
assay.setup: procedure of Example 158; read-out: IC50 μM (158)
reported.property: IC50 (µM)
Number in µM, nothing else.

molecule: CCOC(=O)N1CCC(N2Cc3cc(Oc4cccc(NS(=O)(=O)c5ccc(C)cc5OC)c4)ccc3N=C2N)CC1
reading.unit: µM
IC50: 0.35

molecule: CCCN1Cc2cc(Oc3cccc(NCc4ccc(OC)cc4)c3)ccc2N=C1N
reading.unit: µM
IC50: 0.18

molecule: CC1CCCCC1C(=O)NCCN1Cc2cc(Oc3ccccc3)ccc2N=C1N (centres unmarked)
reading.unit: µM
IC50: 0.13

Switching to the query record.
Req: Bench note: what IC50 did `CN(Cc1ccccc1)C(=O)CCN1Cc2cc(C(=O)c3ccccc3)ccc2N=C1N` show?
Resp: 7.2

====

target: β-secretase(BACE) (Homo sapiens, UniProt P56817)
Construct: purchased Panvera
assay.remarks: BACE FS1% Inhibition Assay
Format: biochemical
assay.setup: 1 μM test compound; FS1 substrate
In this section we review reported % Inhibition (FS) 1 μM values for a set of compounds.

compound: COc1ccc(-c2ccc3c(c2)CN(C(CCC(=O)N(C)C2CCCCC2)C2CCCCC2)C(N)=N3)cc1 (racemic)
target: β-secretase(BACE) (Homo sapiens, UniProt P56817)
% Inhibition (FS) 1 μM: <30%
--
compound: C=CCc1cccc(C)c1Oc1ccc2c(c1)CN(Cc1cccc(C(=O)N(C)C3CCCCC3)c1)C(N)=N2
target: β-secretase(BACE) (Homo sapiens, UniProt P56817)
% Inhibition (FS) 1 μM: <30%
--
compound: CC(C)CCC(=O)NCC(Cc1ccc(O)cc1)N1Cc2cc(Oc3ccccc3)ccc2N=C1N (stereo not drawn)
target: β-secretase(BACE) (Homo sapiens, UniProt P56817)
% Inhibition (FS) 1 μM: <30%
--
compound: CC(=O)c1cccc(-c2ccc3c(c2)CN(CCNC(=O)CC2CCCC2)C(N)=N3)c1
target: β-secretase(BACE) (Homo sapiens, UniProt P56817)
% Inhibition (FS) 1 μM: <30%

Req: Bench note: what % Inhibition (FS) 1 μM did `CC(=O)Nc1cccc(-c2ccc3c(c2)CN(Cc2cccc(C(=O)N(C)C4CCCCC4)c2)C(N)=N3)c1` show?
Resp: 37%

Req: Bench note: what % Inhibition (FS) 1 μM did CCCC(CCC)C(=O)N1CCCCC(N2Cc3cc(Oc4ccccc4)ccc3N=C2N)C1 (stereo not drawn) show?
Resp: <30%

Req: Bench note: what % Inhibition (FS) 1 μM did CC(C)N(C(=O)CC(C1CCCCC1)N1Cc2cc(Oc3ccccc3)ccc2N=C1N)C1CCCCC1 (stereo not drawn) show?
Resp: <30%

Req: Bench note: what % Inhibition (FS) 1 μM did `CC(C)[C@@H](CNC(=O)C1CCCCC1)N1Cc2cc(Oc3ccccc3)ccc2N=C1N` show?
Resp: <30%

Req: Bench note: what % Inhibition (FS) 1 μM did CC(C)(C)OC(=O)NCC(c1ccccc1)N1Cc2cc(Oc3ccccc3)ccc2N=C1N (stereo not drawn) show?
Resp: 46%

Req: Bench note: what % Inhibition (FS) 1 μM did `CN(C)Cc1ccccc1-c1ccc2c(c1)CN(Cc1cccc(C(=O)N(C)C3CCCCC3)c1)C(N)=N2` show?
Resp: <30%

Req: Bench note: what % Inhibition (FS) 1 μM did `CCCC(=O)NCCN1Cc2cc(-c3ccccc3C)ccc2N=C1N` show?
Resp: 69%

Req: Bench note: what % Inhibition (FS) 1 μM did `Cc1ccccc1-c1ccc2c(c1)CN(CCNC(=O)C1CCC1)C(N)=N2` show?
Resp: 87%
